Value source: patent US8772480B2

Known pIC50 of a selection of molecules
# System: phosphorylation of Akt at Serine 473 in U87 MG cells
# Protocol notes: cells
# Measurement conditions: Homo sapiens, U-87 MG, 2 h, read-out: U87Cell IC50, pAkt (Ser 473), U87 MG cells, two hours with compound
pIC50: −log10 of the molar value.
Quantity kind: pIC50

INSERT INTO measurements (molecule, readout_value) VALUES
  ('Cc1nc(N)nc(-c2cccnc2Nc2ccc(NC(=O)NC(C)C)nc2)n1 [Example 192]', 6.03),
  ('Cc1nc(N)nc(-c2cc([C@@H](C)N3CCN(S(C)(=O)=O)C[C@@H]3C)cnc2Nc2ccc3scnc3c2)n1 [Example 293]', 7.62),
  ('COc1cccc(Nc2cnc(Nc3ccc(OC)nc3)c(-c3nc(C)nc4[nH]cnc34)c2)c1 [Example 96]', 6.39),
  ('CNc1nc(C)nc(-c2cc(CN3CCN(S(C)(=O)=O)CC3)cnc2Nc2ccc(OC)nc2)n1 [Example 163]', 7.52);
